Numbers sourced from patent US20220362394A1.

Biological target: cynomolgus BCMA on cells (cynomolgus monkey, UniProt Q02223 1-184 (human entry))
Sequence (Q02223 other isoform, or with tags, fused parts or gaps): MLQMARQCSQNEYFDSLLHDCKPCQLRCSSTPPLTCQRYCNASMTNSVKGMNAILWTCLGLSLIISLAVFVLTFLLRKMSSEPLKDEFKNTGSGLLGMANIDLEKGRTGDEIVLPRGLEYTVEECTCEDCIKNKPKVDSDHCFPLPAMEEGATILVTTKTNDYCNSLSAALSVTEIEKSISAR
Experiment: FACS, 293T-cynoBCMA cells
Each entry below lists one item and its recorded Bmax value.
Please state the figure in MFI; there is no need to write the unit.

| Binder | Value Kind | Measurement Unit | Observed |
| --- | --- | --- | --- |
| 10G5 (antibody, V domains shown, Chicken HybriFree-derived antibody; also called Antibody 31) VH: AVTLDESGGGLQTPGGVLSLVCKASGFTFSSFNMFWVRQAPGKGLEWVAYISNDGSSTSYGPAVKGRATISRDNGQSTVRLQLNNLRAEDTATYFCAKTTCIGSGGCIDTWGHGTEVIVSS VL: ALTQPSSVSANPGETVKITCSGGNYDYGWYQQKSPGSAPVTLIYYNNKRPSDIPSRFSGSKSGSTGTLTITGVQAEDEAIYYCANVDSTDDVFGAGTTLTVL | Bmax | MFI | 24400 |

*Q* Input 10F4 (antibody, V domains shown, Chicken HybriFree-derived antibody; also called Antibody 37) VH: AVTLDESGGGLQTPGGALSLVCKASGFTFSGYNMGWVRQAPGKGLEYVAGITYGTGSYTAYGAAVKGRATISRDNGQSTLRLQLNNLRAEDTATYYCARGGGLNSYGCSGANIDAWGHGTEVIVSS VL: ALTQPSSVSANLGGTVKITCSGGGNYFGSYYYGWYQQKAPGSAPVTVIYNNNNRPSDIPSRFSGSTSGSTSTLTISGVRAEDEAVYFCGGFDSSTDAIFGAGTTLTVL , output reported Bmax.
*A* 12800
